Origin of values: ChEMBL document CHEMBL4028909

# method_summary: Ratio of AUC in ICR mouse brain to AUC in ICR mouse plasma at 10 mg/kg, po measured at 6 hrs
# Type: ADME, organism-based
# protocol_conditions: read-out: Ratio AUC
measurement_name: Kp at 6 h
The reply should be a number, written without any unit.

Give recorded Kp at 6 h. COCCCc1ccc2oc(-c3ccc(OC)c(OC)c3)cc2c1
1.2

* * *

# method_summary: AUClast in mouse at 30 mg/kg, po
# Assay type: ADME, organism-based
# Set-up: dose 30 mg/kg, time 0 - last, route oral
# protocol_conditions: in vivo
measurement_name: AUC(0-t) (ng·h/mL)
Return type: number; implicit unit ng·h/mL.

Assign AUC(0-t) to the following record: COCCCc1ccc2oc(-c3ccc(OC)c(OC)c3)cc2c1
10400
